The values you see were collected from the supplement of paper PMC9262897.

test system: E. coli TESEC Mtb Alr; assay: growth (OD600 after 10 h); higher = more growth (less inhibition); conditions: arabinose 10000 nM; compound 0.1 mM; raw OD600 reference: median of DMSO wells 0.264, cell-free background 0.041
Where a name gives a salt, the structure may show the parent alone.
quantity name: growth
I'd appreciate a reply containing only the number, no unit.

Here's what some known entries look like.
1) Nc1ncnc2c1ncn2C1OC(COP(=O)(O)O)C(O)C1O (configuration not stated) [Adenosine 5'-monophosphate monohydrate]	0.266
2) CCCOc1ccccc1-c1nc2[nH]nnc2c(=O)[nH]1 [Zaprinast]	0.257
3) COc1cc([C@@H]2c3cc4c(cc3[C@@H](O[C@@H]3O[C@@H]5CO[C@@H](C)O[C@H]5[C@H](O)[C@H]3O)[C@H]3COC(=O)[C@H]23)OCO4)cc(OC)c1O [Etoposide]	0.0427

Item CCN(CC)C(=S)SSC(=S)N(CC)CC [Disulfiram] ; assay system E. coli TESEC Mtb Alr; growth reported as 0.115

Item CC(C)(Sc1cc(C(C)(C)C)c(O)c(C(C)(C)C)c1)Sc1cc(C(C)(C)C)c(O)c(C(C)(C)C)c1 [Probucol] ; assay system E. coli TESEC Mtb Alr; growth reported as 0.259

Item CC(=O)Oc1cccc2c1C(=O)c1c(OC(C)=O)cc(C(=O)O)cc1C2=O [Diacerein] ; assay system E. coli TESEC Mtb Alr; growth reported as 0.161

Item CCN(CC)CCNC(=O)COc1ccc(OC)cc1 [Mefexamide hydrochloride] ; assay system E. coli TESEC Mtb Alr; growth reported as 0.268

Item NS(=O)(=O)c1cc(Cl)c(Cl)c(S(N)(=O)=O)c1 [Dichlorphenamide] ; assay system E. coli TESEC Mtb Alr; growth reported as 0.27

Item CC(N)CCCC(C)(C)O (configuration not stated) [Heptaminol hydrochloride] ; assay system E. coli TESEC Mtb Alr; growth reported as 0.26

Item O=C1CCc2ccc(OCCCCN3CCN(c4cccc(Cl)c4Cl)CC3)cc2N1 [Aripiprazole] ; assay system E. coli TESEC Mtb Alr; growth reported as 0.298

Item O=C(O)Cc1ccc(-c2ccccc2)cc1 [Felbinac] ; assay system E. coli TESEC Mtb Alr; growth reported as 0.245

Item CN(Cc1cnc2nc(N)nc(N)c2n1)c1ccc(C(=O)N[C@@H](CCC(=O)O)C(=O)O)cc1 (racemic) [Amethopterin (R,S)] ; assay system E. coli TESEC Mtb Alr; growth reported as 0.224

Item CCOc1ccccc1OC(c1ccccc1)C1CNCCO1 (configuration not stated) [Reboxetine mesylate] ; assay system E. coli TESEC Mtb Alr; growth reported as 0.253

Item CCCOc1cc(N)ccc1C(=O)OCCN(CC)CC [Propoxycaine hydrochloride] ; assay system E. coli TESEC Mtb Alr; growth reported as 0.274

Item COc1cccc2c1C(=O)c1c(O)c3c(c(O)c1C2=O)C[C@@](O)(C(=O)CO)C[C@@H]3O[C@H]1C[C@H](N)[C@@H](O)[C@H](C)O1 [Epirubicin hydrochloride] ; assay system E. coli TESEC Mtb Alr; growth reported as 0.0462

Item O=C1O[C@H]([C@@H](O)CO)C(O)=C1O [Ascorbic acid] ; assay system E. coli TESEC Mtb Alr; growth reported as 0.249

Item C[N+](C)(C)CCCCCC[N+](C)(C)C [Hexamethonium dibromide dihydrate] ; assay system E. coli TESEC Mtb Alr; growth reported as 0.245
